# System: T. cruzi
# assay details: T. cruzi growth inhibition
# Assay type: cell-based, Trypanosoma cruzi
# condition info: 10 μM
Marks after values point to notes of the source that are not given here.
attribute measured: T. cruzi % inh at 10 μM

Examples with answers:
Qu. Any idea what T. cruzi % inh at 10 μM was measured for Cl.O=S(=O)(c1ccc(-c2ccc3ncnc(Nc4ccc(OCc5ccccc5F)c(Cl)c4)c3c2)cc1)N1CCOCC1 [Compound 20i] ?
Ans. 10%

Qu. Okay, and `Fc1cccc(COc2ccc(Nc3ncnc4ccc(-c5cccc(-n6cccn6)c5)cc34)cc2Cl)c1` ?
Ans. (10)* %

Qu. What about this compound? O=S(=O)(c1ccc(-c2ccc3ncnc(Nc4ccc(OCc5cccc(F)c5)c(Cl)c4)c3c2)cc1)N1CCCC1 [Compound 10n]
Ans. (10)* %

Qu. Entry `Cc1cc(-c2ccc3ncnc(Nc4ccc(OCc5cccc(F)c5)c(Cl)c4)c3c2)cnc1N1CCOCC1` please
Ans. 49%

Here's the next entry for you.
Qu. What does the data say about its T. cruzi % inh at 10 μM? Entry: `O=C(c1cncc(-c2ccc3ncnc(Nc4ccc(OCc5cccc(F)c5)c(Cl)c4)c3c2)c1)N1CCOCC1`
Ans. −2%

----------
# assay details: Mouse oral pharmacokinetic study
# Type: in vivo, male BALB/c mice
# condition info: male, BALB/c, mouse; plasma; 40 mg/kg PO single dose
attribute measured: AUC(0-t) (ng·h/mL)
Give bare numbers, in ng·h/mL.

Qu. // query AUC(0-t) value for entry Fc1cccc(COc2ccc(Nc3ncnc4ccc(-c5cccc(N6CCOCC6)c5)cc34)cc2Cl)c1 [Compound 23a]
Ans. 1950

----------
# Tested on: HepG2 cells
# assay details: HepG2 cell toxicity (MTT) assay
# Format: cell-based
# condition info: Homo sapiens, HepG2; read-out: HepG2 cell growth EC50
# Method: Then 2 μL of DMSO (control) or different concentrations of drugs prepared from 200× DMSO stocks were added to the cultures. […] All experiments were repeated thrice in independent studies where each dose was administered in duplicate (total n=6). HepG2 Cell Toxicity Assay. […] HepG2 Cell Toxicity assay. […] Absorbance was determined in all wells using a Tecan iControl 1.6 Infinite plate reader.
attribute measured: EC50

Qu. Consider the compound O=S(=O)(c1ccc(-c2ccc3ncnc(Nc4ccc(OCc5cccc(F)c5)c(Cl)c4)c3c2)cc1)N1CCOCC1 [Compound 10a] and give its measured EC50.
Ans. > 15 µM

----------
# System: T. cruzi
# assay details: T. cruzi growth inhibition
# Format: cell-based, Trypanosoma cruzi
attribute measured: EC50 (nM)
Numbers only, in nM.

Known EC50 results, listed for orientation:
Qu. If you can, please state the reported EC50 value of CN1CCN(S(=O)(=O)c2cccc(-c3ccc4ncnc(Nc5ccc(OCc6cccc(F)c6)c(Cl)c5)c4c3)c2)CC1 [NEU-770] .
Ans. 1400

Qu. Check Fc1cccc(COc2ccc(Nc3ncnc4ccc(-c5cccc(CN6CCOCC6)c5)cc34)cc2Cl)c1 [Compound 23c] too.
Ans. 2400

Look up EC50 for the entries below, preserving their order.
1. Fc1cccc(COc2ccc(Nc3ncnc4ccc(-c5cccc(N6CCNCC6)c5)cc34)cc2Cl)c1 [NEU-711]
2. CN1CCN(S(=O)(=O)c2ccc(-c3ccc4ncnc(Nc5ccc6cnn(Cc7cccc(F)c7)c6c5)c4c3)cc2)CC1 [NEU-771]

Ans.
1: 2200; 2: 1500

Source: patent US20150259331A1
